Read-out: Potassium channel subfamily K member 1 (KCNK1), KCNK1 (gene 3775)
Test: LTEA_HepaRG_KCNK1: Life Technologies and Expression Analysis (LTEA) Assay for Potassium channel subfamily K member 1 (KCNK1) using HepaRG (AID 2283511)
Conditions: mRNA level, 48 h; actives raise or lower the signal
Protocol: LTEA_HepaRG is a cell based, multiplexed-readout assay that uses HepaRG, a human liver cell line, with measurements taken at 48 hours after chemical dosing on a 96-well plate.LTEA_HepaRG_KCNK1 is one of 102 assay component(s) measured in the LTEA HepaRG cell culture assay. It is a marker of Hyperplasia.Data from the assay component LTEA_HepaRG_KCNK1 was analyzed into 1 endpoint. […]
Activity calls are given as the source filed them. How the source made its calls: active means hit-call score of the fitted dose curve at least 0.9, where 1 is the maximum; inactive means score below 0.9.
QUANTITY KIND: outcome

COMPOUND: CC(C)(O)c1cnn2c(-c3ccc(F)c(-c4c(F)cccc4C#N)c3)cnc2n1
QUANTITY KIND: outcome
RESULT: inactive

COMPOUND: c1ccc(N=Nc2ccccc2)cc1
QUANTITY KIND: outcome
RESULT: inactive

COMPOUND: CC(O)CCO (configuration not stated)
QUANTITY KIND: outcome
RESULT: inactive

COMPOUND: Nc1cc(Cl)cc(C(=O)O)c1Cl
QUANTITY KIND: outcome
RESULT: inactive

COMPOUND: ClC1=C(Cl)[C@]2(Cl)[C@H]3[C@H]([C@@H]4C=C[C@H]3C4)[C@@]1(Cl)C2(Cl)Cl
QUANTITY KIND: outcome
RESULT: inactive

COMPOUND: O=Cc1ccco1
QUANTITY KIND: outcome
RESULT: inactive

COMPOUND: CS(=O)(=O)NC(=O)c1cc(Oc2ccc(C(F)(F)F)cc2Cl)ccc1[N+](=O)[O-]
QUANTITY KIND: outcome
RESULT: inactive

COMPOUND: [As]#[In]
QUANTITY KIND: outcome
RESULT: inactive

COMPOUND: Cc1ccc([N+](=O)[O-])cc1
QUANTITY KIND: outcome
RESULT: inactive

COMPOUND: c1ccc(NNc2ccccc2)cc1
QUANTITY KIND: outcome
RESULT: inactive

COMPOUND: CC(C)(C)OOC(C)(C)CCC(C)(C)OOC(C)(C)C
QUANTITY KIND: outcome
RESULT: inactive

COMPOUND: O=[N+]([O-])c1ccc(Oc2ccc(Cl)cc2Cl)cc1
QUANTITY KIND: outcome
RESULT: inactive
